Recorded measurements of Percent Effect, one per entry
Biological target: Tyrosyl-tRNA synthetase, putative (Trypanosoma cruzi (strain CL Brener)) (UniProt Q4DSP6)
Sequence (Q4DSP6 as listed by the source): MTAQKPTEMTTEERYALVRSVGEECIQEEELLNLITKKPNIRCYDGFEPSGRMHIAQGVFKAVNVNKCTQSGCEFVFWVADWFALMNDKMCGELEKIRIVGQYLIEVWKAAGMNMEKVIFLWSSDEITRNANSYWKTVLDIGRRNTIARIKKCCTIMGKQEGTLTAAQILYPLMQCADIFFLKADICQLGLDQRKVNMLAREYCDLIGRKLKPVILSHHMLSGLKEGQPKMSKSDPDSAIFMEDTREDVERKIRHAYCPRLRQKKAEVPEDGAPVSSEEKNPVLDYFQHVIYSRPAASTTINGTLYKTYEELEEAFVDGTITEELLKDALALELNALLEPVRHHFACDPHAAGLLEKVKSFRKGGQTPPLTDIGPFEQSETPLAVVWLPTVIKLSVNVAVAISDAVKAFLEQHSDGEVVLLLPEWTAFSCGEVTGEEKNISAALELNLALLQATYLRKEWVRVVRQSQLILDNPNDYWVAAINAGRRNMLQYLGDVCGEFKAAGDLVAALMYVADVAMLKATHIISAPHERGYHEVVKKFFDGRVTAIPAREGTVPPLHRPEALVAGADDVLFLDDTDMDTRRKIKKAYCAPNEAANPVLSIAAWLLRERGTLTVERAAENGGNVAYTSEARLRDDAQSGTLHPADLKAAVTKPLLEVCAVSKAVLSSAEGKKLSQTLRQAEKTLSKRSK
Assay: Trypanosoma cruzi tyrosyl tRNA synthetase (TcYRS) SOP
Assay type: functional
Design: scale not given: direction of the effect not stated beside the values
Conditions: 30 µM
Measured metric: Percent Effect (%)

INSERT INTO results (compound, unit_abbreviation, value_reported) VALUES
  ('O=C1COC2(CCN(Cc3ccc(F)cc3)CC2)CN1', '%', 15.8),
  ('Cc1cc(CN2CCCC2c2noc(C)n2)no1 (configuration not stated)', '%', -2.56),
  ('COC[C@@H]1CC[C@H]2[C@H](CCN2S(=O)(=O)c2ccc(F)cc2)O1', '%', 7.69),
  ('CC(C)Cc1noc(CN2CCC(NC(=O)c3cccs3)CC2)n1', '%', 16.1),
  ('CC(O)CC(C)(C)CNC(=O)NCc1cccc(-n2ccnc2)c1 (configuration not stated)', '%', -1.24),
  ('COC(=O)Cn1c(=O)nc2n1C(=O)N(c1ccc(Cl)cc1)C2', '%', 2.44),
  ('Cc1nccn1-c1cccc(C2CCCN(C(=O)c3cc[nH]n3)C2)n1 (configuration not stated)', '%', 10),
  ('c1cnc2c(c1)cc([C@H]1CCCO1)n2CCN1CCOCC1', '%', 11.7),
  ('Cc1ccc(C(=O)N2C[C@@H](OCC3CCOCC3)[C@H]3OCCC[C@H]32)o1', '%', 15.4),
  ('O=C(c1ccco1)N1CCOCC2(CCN(C3CCOCC3)C2)C1 (configuration not stated)', '%', 5.13),
  ('CC(C)c1ccc(O)c(C(=O)N2CCN(Cc3cscn3)CC2)c1', '%', 18.3),
  ('CCc1nc(CCNC(=O)C2CCOC2)sc1C (configuration not stated)', '%', 8.54);

----------
Organism: Homo sapiens
Assay: To identify inhibition of the IFN signalling (Jak-Stat) pathway via expression of an eGFP reporter gene under the control of an IFN-stimulated response element (ISRE) containing MxA promoter.
Type: functional
Set-up: scale not given: direction of the effect not stated beside the values
Settings: 30 µM
Measured metric: Percent Effect

INSERT INTO results (compound, measured_metric, value_reported) VALUES
  ('CCc1cc(N2CCSCC2)n2nc(C)c(C)c2n1', 'Percent Effect', '15.8%'),
  ('CC(C)N(C)CCCNC(=O)c1cnc(-c2ccccc2)nc1', 'Percent Effect', '-4.42%'),
  ('COc1ccccc1CC(=O)N1CC[C@@]2(CCCO2)[C@@H](OC)C1', 'Percent Effect', '14.4%'),
  ('O=C(NCCN1CCCCC1)c1ccoc1', 'Percent Effect', '14.7%'),
  ('Cc1cnn(CC2CCCN2Cc2nnc(Cc3ccccc3)o2)c1 (configuration not stated)', 'Percent Effect', '19.9%'),
  ('O=C(NCCCn1ccnc1)N1CCCC1c1ccncc1 (configuration not stated)', 'Percent Effect', '-1.17%'),
  ('Cc1ncnc2c1CCN(Cc1ccccn1)CC2', 'Percent Effect', '-16.5%'),
  ('Cc1cccc(CN2C[C@@H]3COC[C@]3(COc3ccc(C#N)cn3)C2)n1', 'Percent Effect', '4.74%'),
  ('Cc1ccccc1S(=O)(=O)N1CCCCC1c1ccn[nH]1 (configuration not stated)', 'Percent Effect', '19.3%'),
  ('CC(C)CC(CNC(=O)NCc1cc[nH]n1)N1CCOCC1 (configuration not stated)', 'Percent Effect', '11.6%'),
  ('COc1cnc(C2(O)CCN(C(=O)c3cccnc3)CC2)c(OC)n1', 'Percent Effect', '-1.41%'),
  ('O=C(NCCc1ccn(-c2ccccc2)n1)N1CCC1', 'Percent Effect', '4.57%');

----------
Recorded measurements of Percent Effect, one per entry
Molecular target: Ubiquitin-activating enzyme e1, putative (Leishmania donovani (strain BPK282A1))
Experiment: Leishmania donovani Ubiquitin Activating Enzyme (LdE1)
Format: functional
Set-up: scale not given: direction of the effect not stated beside the values
Conditions: 30 µM
Measured potencies and affinities stand elsewhere.
Measured metric: Percent Effect (%)

INSERT INTO results (compound, target_or_test_system, measured_metric, unit_abbreviation, value_reported) VALUES
  ('Cn1cc(C(=O)NC2CCN(Cc3ccn(C)c(=O)c3)CC2)cn1', 'Ubiquitin-activating enzyme e1, putative (Leishmania donovani (strain BPK282A1))', 'Percent Effect', '%', -7.69),
  ('O=C(O)C(c1ccc2c(c1)OCO2)N1CCC(C(=O)N2CCCC2)CC1 (centres undefined)', 'Ubiquitin-activating enzyme e1, putative (Leishmania donovani (strain BPK282A1))', 'Percent Effect', '%', 0),
  ('CC(C)CN1CCN(C(=O)NCc2cccnc2-n2cccn2)CC1', 'Ubiquitin-activating enzyme e1, putative (Leishmania donovani (strain BPK282A1))', 'Percent Effect', '%', 16),
  ('CC(=O)N1CCC(c2cncc(Oc3ccccc3)n2)CC1', 'Ubiquitin-activating enzyme e1, putative (Leishmania donovani (strain BPK282A1))', 'Percent Effect', '%', 0),
  ('O=C1CC(c2ccccc2)c2c(n3ccsc3nc2=O)N1 (centres undefined)', 'Ubiquitin-activating enzyme e1, putative (Leishmania donovani (strain BPK282A1))', 'Percent Effect', '%', 17.3),
  ('Cc1nc(C)n(C2CCCN(C(=O)Cc3cccnc3)C2)n1 (centres undefined)', 'Ubiquitin-activating enzyme e1, putative (Leishmania donovani (strain BPK282A1))', 'Percent Effect', '%', 5.41),
  ('CN(C)C[C@H]1OC[C@@H]2CCN(S(=O)(=O)c3ccccc3)C[C@@H]21', 'Ubiquitin-activating enzyme e1, putative (Leishmania donovani (strain BPK282A1))', 'Percent Effect', '%', 3.9),
  ('CCn1c(C(=O)N2CCN(C(=O)COC)CC2)cc2ccccc21', 'Ubiquitin-activating enzyme e1, putative (Leishmania donovani (strain BPK282A1))', 'Percent Effect', '%', 13),
  ('COc1ccc(-c2noc(CN3CCOCC3C)n2)cc1OC (centres undefined)', 'Ubiquitin-activating enzyme e1, putative (Leishmania donovani (strain BPK282A1))', 'Percent Effect', '%', 18.9),
  ('Cc1cccc(N2CC[C@@H]3CN(Cc4csc(C)n4)CCO[C@@H]3C2)n1', 'Ubiquitin-activating enzyme e1, putative (Leishmania donovani (strain BPK282A1))', 'Percent Effect', '%', -14.3),
  ('COc1ccc(OCc2sc(C3(O)CCCNCC3)nc2C)cc1 (centres undefined)', 'Ubiquitin-activating enzyme e1, putative (Leishmania donovani (strain BPK282A1))', 'Percent Effect', '%', 9.46),
  ('Cc1ccc(CN2CCC3(CC2)OC(C(=O)N(C)C)c2ccccc23)o1 (centres undefined)', 'Ubiquitin-activating enzyme e1, putative (Leishmania donovani (strain BPK282A1))', 'Percent Effect', '%', 4),
  ('Cc1cc(CNc2cc(Cl)ccc2OCCS(C)(=O)=O)no1', 'Ubiquitin-activating enzyme e1, putative (Leishmania donovani (strain BPK282A1))', 'Percent Effect', '%', 5.13),
  ('CCn1ccnc1CNCC1CCCN1c1cc(NC)ncn1 (centres undefined)', 'Ubiquitin-activating enzyme e1, putative (Leishmania donovani (strain BPK282A1))', 'Percent Effect', '%', 0),
  ('Cc1ccccc1-c1cc(C(=O)NCCN2CCCS2(=O)=O)[nH]n1', 'Ubiquitin-activating enzyme e1, putative (Leishmania donovani (strain BPK282A1))', 'Percent Effect', '%', 12.8),
  ('CN1CCC(NC(=O)NCCNc2ccccn2)CC1', 'Ubiquitin-activating enzyme e1, putative (Leishmania donovani (strain BPK282A1))', 'Percent Effect', '%', 16.2),
  ('CCc1cnc2c(c1NCc1ccncc1)c(=O)n(C)c(=O)n2C', 'Ubiquitin-activating enzyme e1, putative (Leishmania donovani (strain BPK282A1))', 'Percent Effect', '%', 8.22),
  ('Cc1ncc(CNC(=O)Cc2ccc(Cl)cc2)c(C2CCCN2C)n1 (centres undefined)', 'Ubiquitin-activating enzyme e1, putative (Leishmania donovani (strain BPK282A1))', 'Percent Effect', '%', -1.35),
  ('Cc1[nH]ncc1C(=O)N1CCN(CC(O)C(C)(C)C)CC1 (centres undefined)', 'Ubiquitin-activating enzyme e1, putative (Leishmania donovani (strain BPK282A1))', 'Percent Effect', '%', 17.9),
  ('CN(C)Cc1ccc(C2CCCCN2C(=O)c2cc(C3CC3)n[nH]2)cc1 (centres undefined)', 'Ubiquitin-activating enzyme e1, putative (Leishmania donovani (strain BPK282A1))', 'Percent Effect', '%', -2.7),
  ('O=S1(=O)N=C(SCc2ccc(Cl)cc2)Nc2ccc(F)cc21', 'Ubiquitin-activating enzyme e1, putative (Leishmania donovani (strain BPK282A1))', 'Percent Effect', '%', -7.79),
  ('COc1cc(CNCc2ccc(C(C)O)cc2)cc2c1OCO2 (centres undefined)', 'Ubiquitin-activating enzyme e1, putative (Leishmania donovani (strain BPK282A1))', 'Percent Effect', '%', 18.9),
  ('Cc1nccc([C@H]2C[C@@H]3CCN(S(=O)(=O)N(C)C)C[C@H]3O2)n1', 'Ubiquitin-activating enzyme e1, putative (Leishmania donovani (strain BPK282A1))', 'Percent Effect', '%', 8.11),
  ('CSCC(=O)N1CCCN(c2ccccc2C)CC1', 'Ubiquitin-activating enzyme e1, putative (Leishmania donovani (strain BPK282A1))', 'Percent Effect', '%', 2.7);
